# Tested on: SK-MEL-28 melanoma
# PROCEDURE SUMMARY: NCI tumour cell line growth inhibition, 48 h
METRIC: TGI

Known TGI results, listed for orientation:
{"COMPOUND": "CCC(=O)O[C@H]1CC[C@H]2[C@@H]3CC[C@H]4CC(=O)[C@H](C)C[C@]4(C)[C@H]3CC[C@]12C", "TESTED ON": "SK-MEL-28 melanoma", "READOUT VALUE": "> 100 µM"}
{"COMPOUND": "COC(=O)C1CCC(=O)N1C(=O)Cc1ccc(OC)cc1 (centres undefined)", "TESTED ON": "SK-MEL-28 melanoma", "READOUT VALUE": "> 100 µM"}
{"COMPOUND": "C(=C\\c1cccc(/C=C/c2ccccn2)n1)/c1ccccn1", "TESTED ON": "SK-MEL-28 melanoma", "READOUT VALUE": "> 100 µM"}

Here's the next entry for you.
Quick note, TGI for "CN(C)CCNC(=O)c1ccc(NCCCN(C)CCCNc2ccc3c(=O)n(CCN(C)C)c(=O)n4c5ccccc5c(=O)c2c34)c2c(=O)c3ccccc3[nH]c12" landed at 1.34 µM

----------
# Test system: LOX IMVI melanoma
# PROCEDURE SUMMARY: NCI tumour cell line growth inhibition, 48 h
The following molecules are shown together with reported TGI values.

Observe how each entry below is paired with its result.
{"MOLECULE": "O=C(/C=C/c1ccccc1)CC1OC(=O)c2ccccc21 (configuration not stated)", "TGI": "> 100 µM"}
{"MOLECULE": "CC(=O)NNc1nc(C)c(C(=O)NNC(=O)C(=O)Nc2c(C)cccc2C)s1", "TGI": "> 100 µM"}

For "Cc1ccc(-c2cc(-c3ccco3)c(C#N)c(=O)[nH]2)cc1" on LOX IMVI melanoma, measured TGI was > 100 µM

Reported TGI (LOX IMVI melanoma) for entry "CC[N+](C)(CC)CCC(O)(c1ccccc1)c1ccccc1" is > 100 µM

# TGI measured on LOX IMVI melanoma for item "CCCCCCCCCCCCCCN" = > 100 µM

For "Cc1cccc2c1[nH]c1[nH]c(=O)[nH]c(=O)c12" on LOX IMVI melanoma, measured TGI was > 100 µM

Here "CCCCc1c2c(nc3c1CCc1cc4cc5c(nc4nc1-3)-c1nc3c(c(CCCC)c1CC5)CCCC3)CCCC2" was tested on LOX IMVI melanoma, and its TGI came to > 100 µM

----------
# System: MDA-MB-231 breast
# PROCEDURE SUMMARY: NCI tumour cell line growth inhibition, 48 h
METRIC: TGI

Example cases with answers are listed next.
{"MOLECULE": "C=CCN(/C=C1/C(=O)O[C@H](COC)[C@@]2(C)C1=C(O)C(=O)C1=C2[C@H](OC(C)=O)C[C@]2(C)C(=O)CC[C@@H]12)CC=C", "TGI": "> 10 µM"}
{"MOLECULE": "COc1ccc(/C=c2\\[nH]c3nc(=O)c(N4CCOCC4)c(N)n3c2=O)cc1", "TGI": "> 100 µM"}
{"MOLECULE": "O=[N+]([O-])c1ccc(S[C@@H]2[C@H]3c4c(-c5ccccc5)[nH]c(-c5ccccc5)c4[C@@H]2C[C@H]3Cl)cc1", "TGI": "> 100 µM"}
{"MOLECULE": "CCCCS(=O)CCC(N)C(=O)O (stereo not drawn)", "TGI": "> 100 µM"}
{"MOLECULE": "Cc1ccncc1.F[B-](F)(F)F.[Pt+2].c1ccc(-c2cccc(-c3ccccn3)n2)nc1", "TGI": "> 100 µM"}
{"MOLECULE": "O=C1C(c2c[nH]c3ccccc23)=C(c2c[nH]c3ccccc23)C(=O)N1O", "TGI": "> 25 µM"}
{"MOLECULE": "COc1ccc(N(C)C(=O)N(C)c2ccc([N+](=O)[O-])cc2)cc1", "TGI": "> 100 µM"}

get_value(item= CC(=O)OCC1OC(n2c3c(c(-c4cccc5ccccc45)c(C#N)c2=S)CCCC3)C(OC(C)=O)C(OC(C)=O)C1OC(C)=O (stereo not drawn) , readout=TGI) returns > 100 µM

----------
# Tested on: NCI-H226 lung
# PROCEDURE SUMMARY: NCI tumour cell line growth inhibition, 48 h
METRIC: TGI

Completed entries (count: 10):
{"COMPOUND": "Cc1nc2c3c(ncn2n1)Oc1c(c(-c2ccccc2)nn1-c1ccccc1)C3c1ccc(Cl)cc1 (centres undefined)", "TGI": "> 100 µM"}
{"COMPOUND": "CCOC(=O)C(NC(=O)N(C1=NCC(C)S1)C1CCCCC1)(OC)C(F)(F)F (centres undefined)", "TGI": "47.5 µM"}
{"COMPOUND": "CCOC(=O)c1c(CN2CCNCC2)nc2ccccc2c1-c1ccccc1", "TGI": "37.9 µM"}
{"COMPOUND": "Clc1ccc(Cc2nc3ccccc3s2)c(Cl)c1", "TGI": "39.1 µM"}
{"COMPOUND": "CO/C(=N\\N=C\\c1cccc(Cl)c1)c1ccncc1", "TGI": "> 10 µM"}
{"COMPOUND": "COc1ccccc1N=C(N)N/N=C/c1c[nH]c2ccccc12", "TGI": "28.5 µM"}
{"COMPOUND": "CC(=O)OCC1OC(n2c3c(c(-c4cccc5ccccc45)c(C#N)c2=S)CCCC3)C(OC(C)=O)C(OC(C)=O)C1OC(C)=O (centres undefined)", "TGI": "> 100 µM"}
{"COMPOUND": "FC(F)(F)c1cc(-c2nnc3n2N=C(N2CCCC2)CS3)cc(C(F)(F)F)c1", "TGI": "> 50 µM"}
{"COMPOUND": "O=C(Nc1cccc([N+](=O)[O-])c1)C(=O)C(C(=O)c1ccccc1-c1ccccc1)C1OC(=O)c2ccccc21 (centres undefined)", "TGI": "25.9 µM"}
{"COMPOUND": "C=C1SC(=Nc2c(C)cc(C)cc2C)N(C(=O)c2sc3ccccc3c2Cl)C12CCCCC2", "TGI": "> 100 µM"}

Field TGI (entry "CN1CCN(c2ccc(NC(=O)c3nc4ccc5[nH]ncc5c4c4c3CCCC4)cc2C(F)(F)F)CC1" ) reads 17.7 µM

"O=[N+]([O-])c1ccc2nc(-c3ccccn3)c(-c3ccccn3)nc2c1" yielded TGI of > 100 µM

The reported value for "CCCc1c(CC)c(=N)c2ccccc2n1C" in terms of TGI is > 100 µM

Just so you know, measured TGI for "Cc1ccc(/C(=N\N=C(N)N)c2ccccc2)cc1" came out at 10.1 µM

----------
# Tested on: LOX IMVI melanoma
# PROCEDURE SUMMARY: NCI tumour cell line growth inhibition, 48 h
METRIC: TGI (µM)
# number only, unit µM dropped from output

{"COMPOUND": "CCOC(=O)C(NC(=O)N(C1=NCC(C)S1)C1CCCCC1)(OC)C(F)(F)F (stereo not given)", "VALUE UNITS": "µM", "TGI": 60.8}
{"COMPOUND": "COc1ccc2c(c1)/C(=C\\c1cccnc1)C(=O)N2", "VALUE UNITS": "µM", "TGI": 25.3}
{"COMPOUND": "CCOC(=O)c1c(CN2CCNCC2)nc2ccccc2c1-c1ccccc1", "VALUE UNITS": "µM", "TGI": 31.6}
{"COMPOUND": "CC(C)CNCC(O)COc1ccc(C(C)(C)c2ccc(OCC(O)CNCC(C)C)cc2)cc1 (stereo not given)", "VALUE UNITS": "µM", "TGI": 3.04}
{"COMPOUND": "CC(C)=CCC[C@@H](C)C1=C(Nc2ccccc2Cl)C(O)=C(C)C(=O)C1=O", "VALUE UNITS": "µM", "TGI": 98.4}

Looking up O=[N+]([O-])c1ccc(S(=O)Cc2ccccc2)c([N+](=O)[O-])c1 (stereo not given) , I see its TGI listed as 2.94
